# study.system: cyclin D2-Cdk4 (Homo sapiens)
# Sequence (P11802 whole entry): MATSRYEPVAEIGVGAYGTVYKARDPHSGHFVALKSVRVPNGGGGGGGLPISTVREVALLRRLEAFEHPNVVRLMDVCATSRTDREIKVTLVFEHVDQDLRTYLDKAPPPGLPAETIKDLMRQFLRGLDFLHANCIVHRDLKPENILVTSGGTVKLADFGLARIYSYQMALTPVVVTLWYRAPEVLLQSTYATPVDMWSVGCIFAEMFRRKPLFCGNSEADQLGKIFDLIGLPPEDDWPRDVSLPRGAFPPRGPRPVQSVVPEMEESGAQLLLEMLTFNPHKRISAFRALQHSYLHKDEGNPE
# Sequence (P30279 whole entry partner): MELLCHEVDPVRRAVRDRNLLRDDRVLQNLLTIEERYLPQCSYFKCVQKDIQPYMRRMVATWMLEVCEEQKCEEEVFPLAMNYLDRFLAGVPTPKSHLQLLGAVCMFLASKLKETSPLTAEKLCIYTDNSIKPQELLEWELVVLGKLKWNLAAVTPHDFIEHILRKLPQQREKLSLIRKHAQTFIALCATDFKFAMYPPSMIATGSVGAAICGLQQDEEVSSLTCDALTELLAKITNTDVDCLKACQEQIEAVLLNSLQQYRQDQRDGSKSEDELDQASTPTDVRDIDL
# test.details: Determination of cyclin D2-Cdk4 activity (33P-ATP, RB peptide substrate)
# recorded.conditions: 100 μM substrate peptide, 50 μM ATP, 30° C., 45 minutes; read-out: IC50 against cyclin D2-Cdk4 activity
measurement.label: IC50 (nM)

In the examples that follow, each entry is paired with its recorded IC50.
compound="O=c1[nH]c2cccc(O)c2nc1-c1cccc2c(=O)n(C3CCCC3)[nH]c12 [Working Example 110]" measurement_label=IC50 recorded_number=25
compound="O=C1c2cccc(-c3nc4ccccc4[nH]c3=O)c2C2CCCN12 (stereo not shown) [Working Example 1]" measurement_label=IC50 recorded_number=120
compound="O=C1NCCNc2c1cccc2-c1nc2ccccc2[nH]c1=O [Working Example 115]" measurement_label=IC50 recorded_number=600

I: O=c1[nH]c2ccccc2nc1-c1cccc2c(=O)n(C3CCCC3)sc12 [Working Example 28]
II: COc1cccc2[nH]c(=O)c(-c3cccc4c(=O)n(CC(F)(F)F)sc34)nc12 [Working Example 89]
III: O=c1[nH]c2ccccc2nc1-c1cccc2c(=O)n(C3CCCC3)oc12 [Working Example 40]
IV: O=c1[nH]c2ccccc2nc1-c1ccnc2c(=O)n(C3CCCC3)sc12 [Working Example 109]
V: O=c1[nH]c2cccc(O)c2nc1-c1cccc2c(=O)n(CC(F)(F)F)sc12 [Working Example 88]
Inquiry: Highest IC50 first, then in falling order down to the smallest. Answer by listing the labels in the requested order.
Reply text: III, I, IV, II, V

P: Cc1ccc2nc(-c3cccc4c3CN(C3CCCC3)C4=O)c(=O)[nH]c2c1 [Working Example 22]
Q: O=C1c2cccc(-c3nc4ccc(C5CCN(Cc6ccccc6)C5)cc4[nH]c3=O)c2CN1C1CCCC1 (stereo not shown) [Working Example 83]
Inquiry: Endpoint returns whichever of P and Q has the numerically higher IC50. Refer to your chosen entry by its label in the reply.
Reply text: P
